FYI, the data here is from patent US7645758B2.

biological target: human histamine H4 receptor (Homo sapiens); construct: expressed in transfected cells; host or cells: SK-N-MC or COS7 cells, transiently transfected with pH4R; cell membranes; assay: Binding assay on recombinant human histamine H4 receptor; conditions: 3H-histamine competition; membranes of SK-N-MC or COS7 cells expressing human H4; read-out: Ki
metric name: Ki (nM)

As a guide, the following entries are already answered.
[[record]]
molecule = "Cc1c(Cl)sc2cc(C(=O)N3CCN(C)CC3)[nH]c12"
metric_name = "Ki"
value_units = "nM"
data_value = 3

[[record]]
molecule = "O=C(c1cc2scc(Br)c2[nH]1)N1CCNCC1"
metric_name = "Ki"
value_units = "nM"
data_value = 410

[[record]]
molecule = "O=C(c1cc2sccc2[nH]1)N1CCNCC1"
metric_name = "Ki"
value_units = "nM"
data_value = 343

[[record]]
molecule = "CN1CCN(C(=O)c2cc3cc(Cl)sc3[nH]2)CC1"
metric_name = "Ki"
value_units = "nM"
data_value = 25

[[record]]
molecule = "CN1CCN(C(=O)c2cc3scc(Br)c3[nH]2)CC1"
metric_name = "Ki"
value_units = "nM"
data_value = 56


(P) O=C(c1cc2sc(Cl)cc2[nH]1)N1CCN2CCCC2C1 (stereo not shown)
(Q) CN1CCN(C(=O)c2cc3c(Cl)c(Cl)sc3[nH]2)CC1
(R) Cc1csc2cc(C(=O)N3CCN(C)CC3)[nH]c12
(S) Cc1sc2cc(C(=O)N3CCN(C)CC3)[nH]c2c1C
Rank descending by Ki. Kindly provide the labels arranged according to the requested ordering.
P, R, Q, S
(P: 715 nM, R: 21 nM, Q: 10 nM, S: 5 nM)
